System: ASPC-1 tumor-bearing mice
test.description: Biodistribution of radionuclide labeled complexes in ASPC-1 tumor-bearing mice
Type: in vivo, BALB/c nude mice
condition.summary: Liver, 24 h
measurement.kind: % ID/g (24 h) Liver (% ID/g)

COc1cccc(OC)c1-c1cc(C(=O)NC2(C(=O)O)C3CC4CC(C3)CC2C4)nn1-c1ccc(N(C)CCCN(C)CCCN(C)C(=O)CN2CCN(CC(=O)[O-])CCN(CC(=O)[O-])CCN(CC(=O)[O-])CC2)cc1C(C)C.[177Lu+3] (centres unmarked) [^177Lu-I-1]    0.97
COc1cccc(OC)c1-c1cc(C(=O)NC2(C(=O)O)C3CC4CC(C3)CC2C4)nn1-c1ccc(C(=O)N(C)CCCN(C)CCCN(C)C(=O)CN2CCN(CC(=O)[O-])CCN(CC(=O)[O-])CCN(CC(=O)[O-])CC2)cc1C(C)C.[177Lu+3] (centres unmarked) [^177Lu-C-2, reference compound]    1.53
COc1cccc(OC)c1-c1cc(C(=O)NC2(C(=O)O)C3CC4CC(C3)CC2C4)nn1-c1ccc(NCCCN(C)CCCNC(=O)CN2CCN(CC(=O)[O-])CCN(CC(=O)[O-])CCN(CC(=O)[O-])CC2)cc1C(C)C.[177Lu+3] (centres unmarked) [^177Lu-I-2]    1.66

(P) COc1cccc(OC)c1-c1cc(C(=O)NC2(C(=O)O)C3CC4CC(C3)CC2C4)nn1-c1ccc(NC(=O)CCCN(C)CCCN(C)C(=O)CN2CCN(CC(=O)[O-])CCN(CC(=O)[O-])CCN(CC(=O)[O-])CC2)cc1C(C)C.[177Lu+3] (centres unmarked) [^177Lu-I-5]
(Q) COc1cccc(OC)c1-c1cc(C(=O)NC2(C(=O)O)C3CC4CC(C3)CC2C4)nn1-c1ccc(SCCCN(C)CCCN(C)C(=O)CN2CCN(CC(=O)[O-])CCN(CC(=O)[O-])CCN(CC(=O)[O-])CC2)cc1C(C)C.[177Lu+3] (centres unmarked) [^177Lu-I-8]
## Task Pick one: P or Q . Which one has the lower reported % ID/g (24 h) Liver? Give the label of your selection.
## Result P
(P: 1.27 % ID/g, Q: 1.86 % ID/g)

* * *

Tested on: ASPC-1 tumor-bearing mice
test.description: Biodistribution of radionuclide labeled complexes in ASPC-1 tumor-bearing mice
Type: in vivo, BALB/c nude mice
condition.summary: Femur, 24 h
measurement.kind: % ID/g (24 h) Femur (% ID/g)

COc1cccc(OC)c1-c1cc(C(=O)NC2(C(=O)O)C3CC4CC(C3)CC2C4)nn1-c1ccc(NC(=O)CCCN(C)CCCN(C)C(=O)CN2CCN(CC(=O)[O-])CCN(CC(=O)[O-])CCN(CC(=O)[O-])CC2)cc1C(C)C.[177Lu+3] (stereo not shown) [^177Lu-I-5]    0.38
COc1cccc(OC)c1-c1cc(C(=O)NC2(C(=O)O)C3CC4CC(C3)CC2C4)nn1-c1ccc(C(=O)N(C)CCCN(C)CCCN(C)C(=O)CN2CCN(CC(=O)[O-])CCN(CC(=O)[O-])CCN(CC(=O)[O-])CC2)cc1C(C)C.[177Lu+3] (stereo not shown) [^177Lu-C-2, reference compound]    0.22

(A) COc1cccc(OC)c1-c1cc(C(=O)NC2(C(=O)O)C3CC4CC(C3)CC2C4)nn1-c1ccc(SCCCN(C)CCCN(C)C(=O)CN2CCN(CC(=O)[O-])CCN(CC(=O)[O-])CCN(CC(=O)[O-])CC2)cc1C(C)C.[177Lu+3] (stereo not shown) [^177Lu-I-8]
(B) COc1cccc(OC)c1-c1cc(C(=O)NC2(C(=O)O)C3CC4CC(C3)CC2C4)nn1-c1ccc(NCCOCCOCCNC(=O)CN2CCN(CC(=O)[O-])CCN(CC(=O)[O-])CCN(CC(=O)[O-])CC2)cc1C(C)C.[177Lu+3] (stereo not shown) [^177Lu-I-10]
## Task // task: argmin of % ID/g (24 h) Femur over [ A , B ] Answer = label.
## Result B
